Cited source for all entries: patent US8163771B2

Each entry below carries its reported IC50.
# Experimental system: recombinant human 11 β-HSD1 (Homo sapiens)
# Construct: made in house; host or cells: E. coli
# Sequence (P28845 whole entry): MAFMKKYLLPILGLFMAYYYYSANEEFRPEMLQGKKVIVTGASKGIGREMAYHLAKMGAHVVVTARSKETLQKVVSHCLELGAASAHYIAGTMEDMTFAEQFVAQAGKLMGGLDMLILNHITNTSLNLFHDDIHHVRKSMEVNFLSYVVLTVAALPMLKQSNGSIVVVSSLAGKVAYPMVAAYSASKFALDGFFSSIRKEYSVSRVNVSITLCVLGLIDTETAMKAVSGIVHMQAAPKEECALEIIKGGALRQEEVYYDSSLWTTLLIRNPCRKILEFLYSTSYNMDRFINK
# Experiment notes: 11 β-HSD1 SPA Assay (Scintillation Proximity Assay)
# Format: biochemical

Compound	IC50
C[C@H](NC(=O)c1ccc(N2C3CCC2CC(NC(=O)C(C)(C)Oc2ccc(F)c(Cl)c2Cl)C3)nc1)C(F)(F)F (stereo partly shown) [Example 437]	< 200 nM
O=C(O)c1ccc(N2[C@@H]3CC[C@H]2C[C@@H](NC(=O)C2(c4ccc(Cl)cc4)CC2)C3)nc1 [Example 19]	< 2000 nM
CC(C)(Oc1cc(F)c(Cl)cc1Cl)C(=O)N[C@H]1C[C@H]2CC[C@@H](C1)N2c1ccc(S(N)(=O)=O)cn1 [Example 261]	< 200 nM
C[C@@H](NC(=O)c1ccc(N2C3CCC2CC(NC(=O)C(C)(C)Oc2ccc(Cl)cc2OC(F)(F)F)C3)nc1)C(F)(F)F (stereo partly shown) [Example 415]	< 200 nM
CC(C)(Oc1cc(-c2ccc(F)cc2)ccc1Cl)C(=O)N[C@H]1C[C@H]2CC[C@@H](C1)N2c1ccc(C(N)=O)cn1 [Example 346]	< 200 nM
CC(C)(Oc1ccc(Cl)cc1C(F)F)C(=O)N[C@H]1C[C@H]2CC[C@@H](C1)N2c1ccc(C(=O)NCC(F)F)cn1 [Example 433]	< 200 nM
CC(C)(Oc1ccc(Cl)c(Cl)c1)C(=O)N[C@H]1C[C@H]2CC[C@@H](C1)N2c1ccc(NS(C)(=O)=O)cc1 [Example 329]	< 200 nM
CC(C)(C(=O)N[C@H]1C[C@H]2CC[C@@H](C1)N2c1ccc(C(=O)NC2CC2)cn1)c1ccccc1Cl [Example 34]	< 200 nM
CC(C)NC(=O)c1ccc(N2[C@@H]3CC[C@H]2C[C@@H](NC(=O)C(C)(C)Oc2ccc(F)c(F)c2)C3)nc1 [Example 85]	< 2000 nM
CC(C)(Oc1ccc(Cl)c(Cl)c1)C(=O)N[C@H]1C[C@H]2CC[C@@H](C1)N2c1ccc(S(C)(=O)=O)cn1 [Example 204]	< 200 nM
CC(Oc1ccc(Cl)cc1Cl)C(=O)N[C@H]1C[C@H]2CC[C@@H](C1)N2c1ccc(C(=O)NC2CC2)cn1 (stereo partly shown) [Example 82]	< 200 nM
CC(C)(Oc1ncc(Cl)cc1Cl)C(=O)N[C@H]1C[C@H]2CC[C@@H](C1)N2c1ncc(C(=O)NCC(F)(F)F)cc1F [Example 161]	< 200 nM
CC(C)(Oc1ccc(F)c(Cl)c1Cl)C(=O)N[C@H]1C[C@H]2CC[C@@H](C1)N2c1ccc(C(=O)NCC(F)(F)F)cn1 [Example 100]	< 200 nM
